# measurement-protocol: Prodrug conversion in recombinant human PON1 192QQ mutant expressed in FreeStyle 293-F cells assessed as hydrolysis by single-enzyme Michaelis-Menten model
# Type: ADME, cell-based

mol: CCCc1nc(C(C)(C)O)c(C(=O)OCc2oc(=O)oc2C)n1Cc1ccc(-c2ccccc2-c2nnn[nH]2)cc1
uom: µM
Km: 157

###

# Test system: Plasma
# measurement-protocol: Prodrug conversion in human plasma assessed as hydrolysis by single-enzyme Michaelis-Menten model
# Assay type: ADME, cell-free

mol: CCCc1nc(C(C)(C)O)c(C(=O)OCc2oc(=O)oc2C)n1Cc1ccc(-c2ccccc2-c2nnn[nH]2)cc1
Km (µM): 6.71
